The following compounds are shown together with reported pEC50 values.
# assaySummary: Activation of human HIF1alpha expressed in human U2OS cells assessed as increase in VEGF expression by RT-PCR analysis
Keep in mind that pEC50 stands for -log10 of concentration in molar terms.

Some compounds with recorded pEC50:
[[record]]
compound = "CC(C)(C)CCNc1nc(-c2ccccn2)nnc1-c1ccccc1"
reported = 5.61

[[record]]
compound = "Cc1cccc(Nc2nc(-c3ccccn3)nnc2-c2ccccc2)n1"
reported = 5.12

[[record]]
compound = "OCCCNc1nc(-c2ccccn2)nnc1-c1ccccc1"
reported = 4.97

[[record]]
compound = "Cc1cccc(CNc2nc(-c3ccccn3)nnc2-c2ccccc2)c1"
reported = 5.54

[[record]]
compound = "Cc1ccccc1CNc1nc(-c2ccccn2)nnc1-c1ccccc1"
reported = 5.51


Consider now this further compound.
Sample O=C(NCCCn1ccnc1)c1cc(-c2ccccc2)on1 [MLS000708948] ; pEC50 observed: 4.80

====

# systemUnderTest: Hypoxia-inducible factor 1-alpha (Homo sapiens, UniProt Q16665)
# Sequence (Q16665 whole entry): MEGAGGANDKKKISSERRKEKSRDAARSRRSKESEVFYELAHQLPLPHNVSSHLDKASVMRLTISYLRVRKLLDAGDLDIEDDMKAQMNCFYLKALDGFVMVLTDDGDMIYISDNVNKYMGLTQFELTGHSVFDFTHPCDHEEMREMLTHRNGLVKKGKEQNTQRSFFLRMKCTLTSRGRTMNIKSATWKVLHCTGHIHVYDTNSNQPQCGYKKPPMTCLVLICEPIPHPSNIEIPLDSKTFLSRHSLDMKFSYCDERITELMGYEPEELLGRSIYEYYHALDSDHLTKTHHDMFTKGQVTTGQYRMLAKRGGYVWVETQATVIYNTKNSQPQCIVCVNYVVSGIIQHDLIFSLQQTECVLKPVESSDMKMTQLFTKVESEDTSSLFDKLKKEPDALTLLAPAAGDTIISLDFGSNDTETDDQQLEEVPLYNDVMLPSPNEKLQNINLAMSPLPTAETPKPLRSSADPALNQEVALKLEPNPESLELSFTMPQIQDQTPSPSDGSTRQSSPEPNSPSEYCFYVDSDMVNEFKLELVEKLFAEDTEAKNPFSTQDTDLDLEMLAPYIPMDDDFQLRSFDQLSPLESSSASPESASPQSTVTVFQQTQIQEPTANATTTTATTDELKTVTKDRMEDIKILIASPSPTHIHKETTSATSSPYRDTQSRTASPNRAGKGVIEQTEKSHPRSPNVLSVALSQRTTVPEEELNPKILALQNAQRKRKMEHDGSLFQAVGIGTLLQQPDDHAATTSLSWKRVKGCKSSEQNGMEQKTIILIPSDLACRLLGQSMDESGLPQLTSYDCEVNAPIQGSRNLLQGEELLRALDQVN
# assaySummary: Activation of human HIF1alpha expressed in DFX-induced human U2OS cells incubated for 30 mins prior to DFX-induction measured after overnight incubation by luciferase reporter gene assay
measurementName: EC50 (µM)
Give the number; µM is assumed, so skip it.

Some compounds with recorded EC50:
[[record]]
cpdsmiles = "CC(C)(C)c1ccc(CNc2nc(-c3ccccn3)nnc2-c2ccccc2)cc1"
measurementname = "EC50"
reported = 1.71

[[record]]
cpdsmiles = "c1ccc(-c2nnc(-c3ccccn3)nc2NCCN2CCOCC2)cc1"
measurementname = "EC50"
reported = 20.8


Consider now this further compound.
Sample c1ccc(-c2nnc(-c3ccccn3)nc2NCCc2ccccn2)cc1 ; EC50 observed: 17.5

====

# assaySummary: Activation of human HIF1alpha expressed in human U2OS cells assessed as increase in VEGF expression by RT-PCR analysis
measurementName: pEC50
Keep in mind that pEC50 stands for -log10 of concentration in molar terms.

[[record]]
cpdsmiles = "O=C(NCCCN1CCOCC1)c1cc(-c2ccccc2)on1"
measurementname = "pEC50"
reported = 4.55

[[record]]
cpdsmiles = "Cc1ccc(CNc2nc(-c3ccccn3)nnc2-c2ccccc2)cc1"
measurementname = "pEC50"
reported = 5.59

[[record]]
cpdsmiles = "c1ccc(-c2nnc(-c3ccccn3)nc2NCc2ccccn2)cc1"
measurementname = "pEC50"
reported = 5.19


Sample COc1ccc(CNc2nc(-c3ccccn3)nnc2-c2ccccc2)cc1 ; pEC50 observed: 5.44

Sample CN(C)c1nc(-c2ccccn2)nnc1-c1ccccc1 ; pEC50 observed: 5.04

Sample c1ccc(-c2nnc(-c3ccccn3)nc2Nc2cnc3ccccc3n2)cc1 ; pEC50 observed: 5.49

====

# systemUnderTest: Hypoxia-inducible factor 1-alpha (Homo sapiens)
# assaySummary: Activation of human HIF1alpha expressed in DFX-induced human U2OS cells incubated for 30 mins prior to DFX-induction measured after overnight incubation by luciferase reporter gene assay
pEC50: −log10 of the molar value.
Criterion: pEC50 meeting or surpassing 5. Met: criterion met. Not met: criterion not met.

[[record]]
cpdsmiles = "O=C(NCC1CC1)c1cc(-c2ccccc2)on1"
classlabel = "criterion not met"

[[record]]
cpdsmiles = "C[C@@H](Nc1nc(-c2ccccn2)nnc1-c1ccccc1)C1CCCCC1"
classlabel = "criterion met"

[[record]]
cpdsmiles = "c1ccc(-c2nnc(-c3ccccn3)nc2NCC2CCOCC2)cc1"
classlabel = "criterion not met"

[[record]]
cpdsmiles = "O=C(NCCCN1CCOCC1)c1cc(-c2ccccc2)on1"
classlabel = "criterion not met"

[[record]]
cpdsmiles = "c1ccc(-c2cccc(CNc3nc(-c4ccccn4)nnc3-c3ccccc3)c2)cc1"
classlabel = "criterion met"

[[record]]
cpdsmiles = "Cc1ccc(CNc2nc(-c3ccccn3)nnc2-c2ccccc2)cc1C"
classlabel = "criterion met"


Determine whether measured pEC50 meets or exceeds 5 for CN1CCN(c2nc(-c3ccccn3)nnc2-c2ccccc2)CC1 criterion not met

Determine whether measured pEC50 meets or exceeds 5 for c1ccc(CCNc2nc(-c3ccccn3)nnc2-c2ccccc2)cc1 criterion met

====

# systemUnderTest: Hypoxia-inducible factor 1-alpha (Homo sapiens)
# assaySummary: Activation of human HIF1alpha expressed in DFX-induced human U2OS cells incubated for 30 mins prior to DFX-induction measured after overnight incubation by luciferase reporter gene assay
measurementName: EC50

Some molecules with recorded EC50:
[[record]]
cpdsmiles = "COc1ccc(CNc2nc(-c3ccccn3)nnc2-c2ccccc2)cc1"
reported = "4.74 µM"

[[record]]
cpdsmiles = "Cc1ccc(CNc2nc(-c3ccccn3)nnc2-c2ccccc2)cc1"
reported = "4.58 µM"

[[record]]
cpdsmiles = "c1ccc(-c2nnc(-c3ccccn3)nc2Nc2cnc3ccccc3n2)cc1"
reported = "7.64 µM"

[[record]]
cpdsmiles = "COc1cccc(CNc2nc(-c3ccccn3)nnc2-c2ccccc2)c1"
reported = "4.15 µM"


EC50 value, target or system Hypoxia-inducible factor 1-alpha (Homo sapiens), for C[C@H](Nc1nc(-c2ccccn2)nnc1-c1ccccc1)C1CCCCC1 : 4.17 µM

EC50 value, target or system Hypoxia-inducible factor 1-alpha (Homo sapiens), for CC(=O)N(O)CCCCCNC(=O)CCC(=O)N(O)CCCCCNC(=O)CCC(=O)N(O)CCCCCN : 17.8 µM

EC50 value, target or system Hypoxia-inducible factor 1-alpha (Homo sapiens), for c1ccc(-c2ccc(CNc3nc(-c4ccccn4)nnc3-c3ccccc3)cc2)cc1 : 1.12 µM

EC50 value, target or system Hypoxia-inducible factor 1-alpha (Homo sapiens), for Cc1cccc(CNc2nc(-c3ccccn3)nnc2-c2ccccc2)c1 : 5.41 µM

EC50 value, target or system Hypoxia-inducible factor 1-alpha (Homo sapiens), for Cc1cccc(Nc2nc(-c3ccccn3)nnc2-c2ccccc2)n1 : 22.4 µM

EC50 value, target or system Hypoxia-inducible factor 1-alpha (Homo sapiens), for c1ccc(CNc2nc(-c3ccccn3)nnc2-c2ccccc2)cc1 : 7.74 µM

====

# systemUnderTest: Hypoxia-inducible factor 1-alpha (Homo sapiens)
# assaySummary: Activation of human HIF1alpha expressed in DFX-induced human U2OS cells incubated for 30 mins prior to DFX-induction measured after overnight incubation by luciferase reporter gene assay in presence of 50 uM iron
measurementName: EC50 (µM)
Give the number; µM is assumed, so skip it.

Sample c1ccc(-c2ccc(CNc3nc(-c4ccccn4)nnc3-c3ccccc3)cc2)cc1 ; EC50 observed: 15.6

====

# assaySummary: Activation of GFP-tagged HIF1alpha expressed in human U2OS cells assessed as HIF1alpha nuclear translocation by high content imaging assay
The following molecules are shown together with reported pEC50 values.
Keep in mind that pEC50 stands for -log10 of concentration in molar terms.

Some molecules with recorded pEC50:
[[record]]
molecule = "COc1cccc(CNc2nc(-c3ccccn3)nnc2-c2ccccc2)c1"
measurementname = "pEC50"
reported = 5.20

[[record]]
molecule = "c1ccc(-c2nnc(-c3ccccn3)nc2NCCc2ccccn2)cc1"
measurementname = "pEC50"
reported = 5.01

[[record]]
molecule = "c1ccc(-c2nnc(-c3ccccn3)nc2NCC2CC2)cc1"
measurementname = "pEC50"
reported = 5.37

[[record]]
molecule = "COc1ccc(CNc2nc(-c3ccccn3)nnc2-c2ccccc2)cc1"
measurementname = "pEC50"
reported = 5.43

[[record]]
molecule = "C[C@@H](Nc1nc(-c2ccccn2)nnc1-c1ccccc1)C1CCCCC1"
measurementname = "pEC50"
reported = 5.92


Sample c1ccc(-c2nnc(-c3ccccn3)nc2NCc2ccccn2)cc1 ; pEC50 observed: 5.12

Sample c1ccc(-c2nnc(-c3ccccn3)nc2NCCN2CCOCC2)cc1 ; pEC50 observed: 5.04

Sample C=CCNc1nc(-c2ccccn2)nnc1-c1ccccc1 ; pEC50 observed: 5.34

Sample c1ccc(-c2nnc(-c3ccccn3)nc2NCC2CCCCC2)cc1 ; pEC50 observed: 5.61

Sample c1ccc(-c2cccc(CNc3nc(-c4ccccn4)nnc3-c3ccccc3)c2)cc1 ; pEC50 observed: 6.30

Sample Cc1ccc(CNc2nc(-c3ccccn3)nnc2-c2ccccc2)cc1C ; pEC50 observed: 5.64

Sample OCC1CCN(c2nc(-c3ccccn3)nnc2-c2ccccc2)CC1 ; pEC50 observed: 4.94

Sample c1ccc(-c2nnc(-c3ccccn3)nc2NCCCN2CCOCC2)cc1 ; pEC50 observed: 5.20

Sample Cc1cccc(CNc2nc(-c3ccccn3)nnc2-c2ccccc2)c1 ; pEC50 observed: 5.62

Sample CC(C)(C)c1ccc(CNc2nc(-c3ccccn3)nnc2-c2ccccc2)cc1 ; pEC50 observed: 6.22

Sample Cc1ccc(CNc2nc(-c3ccccn3)nnc2-c2ccccc2)cc1 ; pEC50 observed: 5.92

Sample OCCCNc1nc(-c2ccccn2)nnc1-c1ccccc1 ; pEC50 observed: 4.98

Sample c1ccc(CNc2nc(-c3ccccn3)nnc2-c2ccccc2)cc1 [GNF-Pf-100] ; pEC50 observed: 5.32

Sample Clc1cccc(CNc2nc(-c3ccccn3)nnc2-c2ccccc2)c1 ; pEC50 observed: 5.83

Sample O=C(NCCCN1CCOCC1)c1cc(-c2ccccc2)on1 ; pEC50 observed: 4.70

Sample C[C@H](Nc1nc(-c2ccccn2)nnc1-c1ccccc1)C1CCCCC1 ; pEC50 observed: 5.69

Sample CN(C)c1nc(-c2ccccn2)nnc1-c1ccccc1 [MLS000541553] ; pEC50 observed: 5.01

Sample Cc1ccccc1CNc1nc(-c2ccccn2)nnc1-c1ccccc1 ; pEC50 observed: 5.02

Sample O=C(NCCCCO)c1cc(-c2ccccc2)on1 ; pEC50 observed: 5.52

Sample CN1CCN(c2nc(-c3ccccn3)nnc2-c2ccccc2)CC1 ; pEC50 observed: 4.99

Sample c1ccc(-c2nnc(-c3ccccn3)nc2Nc2cnc3ccccc3n2)cc1 ; pEC50 observed: 5.35

Sample c1ccc(-c2nnc(-c3ccccn3)nc2NCC2CCOCC2)cc1 ; pEC50 observed: 5.12

Sample c1ccc(-c2nnc(-c3ccccn3)nc2NCc2cccnc2)cc1 ; pEC50 observed: 5.30

Sample O=C(NCCCn1ccnc1)c1cc(-c2ccccc2)on1 [MLS000708948] ; pEC50 observed: 5.11

Sample CC(C)(C)CCNc1nc(-c2ccccn2)nnc1-c1ccccc1 ; pEC50 observed: 5.42
